Values compiled from the supplement of paper PMC9170038.

Test system: MS2 coat protein
Assay: apparent KD of MS2 coat protein; higher = weaker reporter binding
Conditions: Eterna round: R107; input ligand: none
value-kind: apparent KD of MS2 coat protein
# answer = value followed by unit

Please review the following examples before continuing.
query-sequence: ACAUGAGGAUCACCCAUGUAAAUAACGGAAGGAGCGUGCGAAAGCACAGGUAGGUCGCCGAUAUAAAUAUUGGGUAUUAUAUUAU [#28 Exclusion - Arginine A]
target-system: MS2 coat protein
recorded-measurement: 31.8 nM
--
query-sequence: ACAAUAUUGAGUUUGUCUCAAGUUUCAGAAGGAGCGUGAGGAAUCACAGGUAGGUCGCUGAUAACAUGAGGAUCACCCAUGUAUU [JR_SSArginiA_Sub005]
target-system: MS2 coat protein
recorded-measurement: 35.7 nM
--
query-sequence: UUGGAUAUGCGAAGGAGCGGGAAAUAUAUAUAUAUAAUCCUAACAUGAGGAUCACCCAUGUCCCAGGUAGGUCGCGCAUAUUUGG [12.H]
target-system: MS2 coat protein
recorded-measurement: 51.7 nM
--
query-sequence: ACGUAAUGCAGAAGGAGCGUCAUUCUCUUACAUGAGGAUCACCCAUGUUACAUGGUUUUAUGACAGGUAGGUCGCUGAAGUACGA [JR_SSArginiB_Sub004]
target-system: MS2 coat protein
recorded-measurement: 105 nM
--
query-sequence: CGGGUUGGACCAGGAAAUGGUCUGACGCGCCGAGGACCGGUACGGCCGCCACUCGCGGGUACAUGAGGAUCACCCAUGUCGGUGG [#1 Same State - Tryptophan A Attempt #12 (HarryS)]
target-system: MS2 coat protein
recorded-measurement: 50.4 nM
--
query-sequence: AUAUAUAUGCGAAGGAGCGGGAAAUAUAUAUAUAUAAUCCUAACAUGAGGAUCACCCAUGUCCCAGGUAGGUCGCGCAUAUAUAU [12.A]
target-system: MS2 coat protein
recorded-measurement: 74 nM
--
query-sequence: AGCCGUACGUACGGAAACGUACGUACGGCACGAGGACCGGUACGGCCGCCACUCGCCCACAUGAGGAUCACCCAUGUAGUGGGUG [The One Line]
target-system: MS2 coat protein
recorded-measurement: 43.7 nM
--
query-sequence: GGAUAGGACAGAAGGAGCGACAUGGCGACGAAAGUCGAAACUUCACAUGAGGAUCACCCAUGUCAGGUAGGUCGCUGUCCUAUCG [ArgXB 7 #MS2Gate #StaticStem]
target-system: MS2 coat protein
recorded-measurement: 48.9 nM
--
query-sequence: UAAUGUGAGAGAAGGAGCGGAGGUCUCGUUACAACAUGAGGAUCACCCAUGUAACGUACCGUCCAGGUAGGUCGCUCUCGGGCGC [lvacmullin]
target-system: MS2 coat protein
recorded-measurement: 13.2 nM
--
query-sequence: AUAACAUGAGGAUCACCCAUGUAAGCUGAAGGAGCGGACGAAAGUCCAGGUAGGUCGCAGCGUUCCUUCACCUCAUGAGAAGGAG [SSArg-A #30 with U all better]
target-system: MS2 coat protein
recorded-measurement: 22.5 nM

## Task Identify measured apparent KD of MS2 coat protein corresponding to GGGACAUGAGGAUCACCCAUGUACCGGUCCCGAGGACCGGUACGGCCGCCACUCGAUGACCUCAUAGUCUACUUGAGCAGUAGAC [Geeson]
## Result 22.1 nM

## Task Identify measured apparent KD of MS2 coat protein corresponding to ACAUGAGGAUCACCCAUGUAAUGGCACGAUACCAGCUGAUCCCGUGGCCCUUGGCAGCGUCCGGUGUGGUCCGGCGGGUUGGACG [LLLMULLIN]
## Result 14.5 nM

## Task Identify measured apparent KD of MS2 coat protein corresponding to UACUUGCUGACGGCCGCCACUAGAACAUGAGGAUCACCCAUGUAUGGCGGCCGAAUCCUCAUGACUAGGACCGGGUCAGCAAGAU [(Trp1)-(Ms2)-(T)'-(M)'-(Trp2)_Design2]
## Result 8.09 nM

## Task Identify measured apparent KD of MS2 coat protein corresponding to UGACAUUGCUCAGAUACCAGACGUGAGGAUCACCCACGUGCCAACAAGUACAAAAUAAAUGUCCCUUGGCAGCUGAGCAAUGUCU [TheoBX 26 #MS2Left #AlternativeMS2 #Theo22]
## Result 9.95 nM

## Task Identify measured apparent KD of MS2 coat protein corresponding to UGUAUGUGAUCUGAUACCAGCUUAAUAACAUGAGCAUCAGCCAUGUGGAGCGGAAACGCUAGCCCUUGGCAGCAGAUCGCAUACU [Denovo 11 #StaticStem #AlternativeMS2]
## Result 143 nM

## Task Identify measured apparent KD of MS2 coat protein corresponding to AUUGUCGCGUCGGCCGCCACUGUCAUGGUUUUCGUGGAACACAUGAGGAUCACCCAUGUAAUUGACAGGACCGGGACGUGGCGGC [Vevea]
## Result 8.64 nM

## Task Identify measured apparent KD of MS2 coat protein corresponding to UAUCCACAUGAGGAUCACCCAUGUUAGGAAGGAGCGGUGAAUGAACCAGGUAGGUCGCCUAGGUGAGGACCAUCUAUGGAUUCGU [Exclusion - Arginine A (Freestyle 12)]
## Result 13.3 nM

## Task Identify measured apparent KD of MS2 coat protein corresponding to AAAUAAAUACAUGAGGAUCACCCAUGUGAAGGAGCGCCCGUUAGGGCAGGUAGGUCGCACAUGAACUCCAAGCGAAAGAAAUAAU [ArgEX 16 #OpenEnded]
## Result 18.3 nM

## Task Identify measured apparent KD of MS2 coat protein corresponding to UUCGUUUGCGGAAGGAGCGACGGACAUCGGUGACCCACGCACAUGAGGAUCACCCAUGUACGUCAGGUAGGUCGCCGCUAAGAGU [XArg-B4]
## Result 17.4 nM

## Task Identify measured apparent KD of MS2 coat protein corresponding to UUUUCAGGGUCGGCCGCCACUGGUAUGGCGAGUCCUCGAACAAACAUGAGGAUCACCCAUGUGAACAGGACCGGGACAGCAUGGG [Exclusion Tryptophan B GF 21]
## Result 380 nM

## Task Identify measured apparent KD of MS2 coat protein corresponding to AACAUGAGGGCGGCCGCCACUCCAUGAACAUGAGGAUCACCCAUGUUGAGGAUCACCCAUGUUGUGAGGACCGGGCCACAUGAGG [Exclusion Tryptophan B 3]
## Result 38 nM

## Task Identify measured apparent KD of MS2 coat protein corresponding to CAUUAAUUACGAAGGAGCGUCGAGAAUGGGUAAACAUGAGGAUCACCCAUGUGAAGGGAACGGCAGGUAGGUCGCGUAAUUAAUG [#22 Same State - Arginine B]
## Result 97.2 nM

## Task Identify measured apparent KD of MS2 coat protein corresponding to AUAUUUAAUGGAAGGAGCGCGGAUAAUAAAGUGGGUAAACAUGAGGAUCACCCAUGUAAACCGCAGGUAGGUCGCCGAAAUAUAU [AstrosEXyARgB#8]
## Result 39 nM

* * *

Tested on: MS2 coat protein
Test: apparent KD of MS2 coat protein, switch ON state; designed switch direction (-1 OFF switch, 1 ON switch): -1; higher = weaker reporter binding
Conditions: FMN input: 0 or 200 uM; Eterna round: R93 (includes R88 designs)
Each record here notes measured apparent KD of MS2 coat protein.
All answers are understood in nM, so give the number only.

Please review the following examples before continuing.
query-sequence: AAGGUACGAGGAUAUACAUAGAUACAGACACAUGUGGAUGUACAUGAGGAUCACCCAUGUAGAAGGCGUAUAUA [AJ 21]
readout-unit: nM
apparent KD of MS2 coat protein: 64

query-sequence: GAAAUACAUGAGGAUCACCCAUGUGAGGAUAUGCUAUGGAAAUAAAAAAUAAAACAUAGCAGAAGGUACAAAAG [Mat - Exclusion 1 - Eli mod - D43]
readout-unit: nM
apparent KD of MS2 coat protein: 21.8

## Task Identify measured apparent KD of MS2 coat protein corresponding to AAAAAGUGAGGAUAUACGCGAACAAAAAUAAAAAAGAAAGCGUAGAAGGCACAUGAGGAUCACCCAUGUCCAAA [Alfred 64% 5]
## Result 27.7

## Task Identify measured apparent KD of MS2 coat protein corresponding to GGGUCACAUGAGGAUCACCCAUGUAAGGAUAUGCUAGGGAUGGAAACCAGGCCGCAACGCAGAAGGUACUAAAG [Janelle Amethyst 18 Mod 13 - Jieux - Exclusion 1]
## Result 50.7

## Task Identify measured apparent KD of MS2 coat protein corresponding to AACAAGACAGGAUAUACAUGAGGAUCACCCAUGUGAGAAUAAAGUGGCGUAACACAAAGUAGAAGGGUCAUGGA [Ruby 6]
## Result 32.6

## Task Identify measured apparent KD of MS2 coat protein corresponding to AAGGUACGAGGAUAUACAUAGAUACAGACACAUGUUCAUGUACAUGAGGAUCACCCAUGUAGAAGGCGUAUAUA [AJ 17]
## Result 56.7

## Task Identify measured apparent KD of MS2 coat protein corresponding to AAAACGGCAGGAUAUACAGAUGAGAACUAGACCGAAAAAAAACAUGAGGAUCACCCAUGUAGAAGGGCCAAAAA [Ex2 Malc#7]
## Result 27.8

## Task Identify measured apparent KD of MS2 coat protein corresponding to AGAAAGUCAGGAUAUGCGAAGGCGUCUGAUAGACGAGGCUAGCAGAAGGGACAUGAGGAUCACCCAUGUGAAGA [Mat - Exclusion 4 - Eli mod - D85]
## Result 55

## Task Identify measured apparent KD of MS2 coat protein corresponding to AAAAAACAUGAGGAUCACCCAUGUCAGGAUAUCCGAAAAAAAAAAAAAAAAAGGCCUUGGAGAAGGGACAUUCC [Chica Displaced 7- Jieux - Exclusion 1]
## Result 53.7

## Task Identify measured apparent KD of MS2 coat protein corresponding to AAGAACUGAGGAUAUACAAAAUAAAAGAAAAGAAAGAAAGAACAUGAGGAUCACCCAUGUAGAAGGUAGAAGAA [Maakherure Amenemhat IV]
## Result 31.3

## Task Identify measured apparent KD of MS2 coat protein corresponding to AAGGGACAUGAGGAUCACCCAUGUCAGGAUAUGCAAAUAACAAACAACAAACAACAAAGCAGAAGGGACAAAAA [Mat - Exclusion 1 - Eli mod - D53]
## Result 27.9

## Task Identify measured apparent KD of MS2 coat protein corresponding to AAAAAGCGAGGAUAUACAUGAGGAUCACCCAUGUCAAAAGAAUAUAAAGAAAUAGGAAGUAGAAGGCGCAAAAA [Ex 3 #3]
## Result 67.1

## Task Identify measured apparent KD of MS2 coat protein corresponding to AACAGUACAGGAUAUACAUGAGGAUCACCCAUGUGAAAAUUAAGUGGCGUACCACAAGGUAGAAGGGUACUGGA [Moding Maslow Revisited (73) 27]
## Result 32.7

## Task Identify measured apparent KD of MS2 coat protein corresponding to CACGUACAUGAGGAUCACCCAUGUUAGGAUAUGCCGGGUAAGAGAAAACUAAAAACCCGUAGAAGGGACGAAAC [Bilbo Confounded 13 - Jieux - Exclusion 1]
## Result 23.3

## Task Identify measured apparent KD of MS2 coat protein corresponding to AAAAUACAUGAGGAUCACCCAUGUGAGGAUAUUAGAAAGGGAAUAAAAUAACUUAAACUAAGAAGGCACAAAAA [Ex 1 May 28]
## Result 18.2

## Task Identify measured apparent KD of MS2 coat protein corresponding to AAAAAGUGAGGAUAUACGAAAAAAAAAAAAAAAAAAGGUGAACAUGAGGAUCACCCAUGUAGAAGGCACAAAAA [Black Design]
## Result 102

## Task Identify measured apparent KD of MS2 coat protein corresponding to AAAGUACGAGGAUAUACAUAGAUACAGAUACAUGUAGACGUACAUGAGGAUCACCCAUGUAGAAGGCGUACAAG [Mat - Same state - Mayanna Mod - D116]
## Result 172

## Task Identify measured apparent KD of MS2 coat protein corresponding to AGACAUACAGGAUAUACAUGGGAAAAAAAAAAAAAAAUUCUACAUGAGGAUCACCCAUGUAGAAGGGUAUGUCA [Ex2 Design 171: Random 1B]
## Result 81.1

## Task Identify measured apparent KD of MS2 coat protein corresponding to AAAAGUAGAGGAUAUACAUGAGGAUCACCCAUGUAGAAAGGAAGUAUAUAUAUGGCGUGUAGAAGGCUGCAUGA [Mat - Mod of Nando]
## Result 26.7
